# Test system: Rhizoctonia solani
# ASSAY: Antifungal activity against Rhizoctonia solani
# Assay type: functional, organism-based
MEASUREMENT LABEL: log10 of EC50 (log10 of the value in µg/mL)
// stored as log10 of EC50 expressed in µg/mL

C=C(C)C1CC=C(C)[C@@H](O)C1 (stereo partly specified)
1.96

Query: Which measured log10 of EC50 value corresponds to O=C/C=C/c1ccccc1 ?
Response: 2.23

Query: Which measured log10 of EC50 value corresponds to CC1(C)C2CCC1(C)C(O)C2 (stereo unspecified) ?
Response: 2.65

Query: Which measured log10 of EC50 value corresponds to Cc1ccc(C(C)C)c(O)c1 ?
Response: 0.60

Query: Which measured log10 of EC50 value corresponds to Cc1ccc(C(C)C)cc1O ?
Response: 1.61

Query: Which measured log10 of EC50 value corresponds to CC12CCC(CC1=O)C2(C)C (stereo unspecified) ?
Response: 2.69
